- Target desc: HDAC6-UBD (HDAC6 1109-1215) (Homo sapiens, UniProt Q9UBN7)
- Sequence (Q9UBN7 1109-1215): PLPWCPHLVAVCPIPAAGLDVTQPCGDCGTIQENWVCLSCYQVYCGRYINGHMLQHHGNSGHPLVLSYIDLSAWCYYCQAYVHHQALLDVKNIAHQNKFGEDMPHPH
- Protocol notes: biochemical
- Parameters: SPR, steady-state binding to immobilised biotinylated UBD proteins
- Cond: read-out: SPR Kd µM (HDAC6)
Observable: Kd (µM)
Report as a plain number; the unit µM is understood.

Dear colleague, I am looking for the recorded Kd of the following molecule: Cn1c(CCC(=O)O)nc2ccccc2c1=O
2.7
